Just for reference, BindingDB's records for PubMed 9694973 is where these values come from.

# tgt: Prostaglandin E2 receptor EP3 subtype (Bos taurus, UniProt P34979)
# Sequence (P34979 whole entry): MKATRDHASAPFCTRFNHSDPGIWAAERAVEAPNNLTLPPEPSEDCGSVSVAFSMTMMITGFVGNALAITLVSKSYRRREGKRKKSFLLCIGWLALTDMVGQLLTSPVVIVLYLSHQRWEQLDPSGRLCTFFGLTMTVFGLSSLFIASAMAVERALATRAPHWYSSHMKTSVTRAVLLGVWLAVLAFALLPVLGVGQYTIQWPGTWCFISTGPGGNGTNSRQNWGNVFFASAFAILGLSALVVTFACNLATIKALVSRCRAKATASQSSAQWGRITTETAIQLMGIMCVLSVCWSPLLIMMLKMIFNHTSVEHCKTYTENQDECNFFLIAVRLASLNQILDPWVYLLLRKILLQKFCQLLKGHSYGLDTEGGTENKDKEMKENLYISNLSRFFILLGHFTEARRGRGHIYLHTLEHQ
pKi: −log10 of the molar value.
Measured pKi, listed per entry for reference.

[
  {
    "compound": "CCCCC[C@H](O)/C=C/C1[C@@H](C/C=C\\CCCC(=O)O)[C@H]2CO[C@@H]1C2 (some centres not stated) [U46619]",
    "obs-value": "< 5.00"
  }
]

Pending compound:
Input line: Recall and state the measured pKi for O=NN1CSCSC1 [NSC_130741] .
Output line: < 5.00
